Value source: patent US20250018014A1

Target: T1, C-terminal human Regnase-1 (amino acids 301 to 599) with N-terminal FLAG tag and C-terminal BirA recognition … (human, UniProt Q5D1E8 301-599)
T1 sequence: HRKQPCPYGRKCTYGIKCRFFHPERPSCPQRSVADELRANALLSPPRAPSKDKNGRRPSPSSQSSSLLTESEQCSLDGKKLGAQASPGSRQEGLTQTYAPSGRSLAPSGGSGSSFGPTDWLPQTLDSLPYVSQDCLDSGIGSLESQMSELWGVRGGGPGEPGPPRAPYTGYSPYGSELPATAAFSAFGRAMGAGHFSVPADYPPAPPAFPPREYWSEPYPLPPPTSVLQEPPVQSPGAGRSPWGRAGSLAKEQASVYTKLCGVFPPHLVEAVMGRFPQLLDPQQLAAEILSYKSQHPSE
Assay: cell-based or functional assay
Positions of bridges follow the written chain, without caps; N, C: chain ends. Non-standard residues stand in square brackets, D forms with d. *: point of attachment. NMeA = CN[C@@H](C)C(=O)O; Pyrrolidide = C1CCN(*)C1; dNMeA = CN[C@H](C)C(=O)O
Rule: Satisfied for 50% inhibition concentration, Regnase-1 phosphorylation by IKKβ (AlphaScreen) not less than 10 µM, Not satisfied for anything less.

Worked examples, 3 binders total:
[[record]]
binder = "[NMeA]YIWDFFGDLD-Pyrrolidide (lactam N-11) [PP4]"
cat = "Satisfied"

[[record]]
binder = "XRFGVWSWIYPD (HELM PEPTIDE1{[meA].R.F.G.V.W.S.W.I.Y.P.D.[C1CCN([*:1])C1]}$PEPTIDE1,PEPTIDE1,1:R1-12:R3$$$V2.0; SMILES CC[C@H](C)[C@@H]1NC(=O)[C@H](Cc2c[nH]c3ccccc23)NC(=O)[C@H](CO)NC(=O)[C@H](Cc2c[nH]c3ccccc23)NC(=O)[C@H](C(C)C)NC(=O)CNC(=O)[C@H](Cc2ccccc2)NC(=O)[C@H](CCCNC(=N)N)NC(=O)[C@H](C)N(C)C(=O)C[C@@H](C(=O)N2CCCC2)NC(=O)[C@@H]2CCCN2C(=O)[C@H](Cc2ccc(O)cc2)NC1=O) [PP14]"
cat = "Not satisfied"

[[record]]
binder = "XRYAVYQWIYPD (HELM PEPTIDE1{[meA].R.Y.A.V.Y.Q.W.I.Y.P.D.[C1CCN([*:1])C1]}$PEPTIDE1,PEPTIDE1,1:R1-12:R3$$$V2.0; SMILES CC[C@H](C)[C@@H]1NC(=O)[C@H](Cc2c[nH]c3ccccc23)NC(=O)[C@H](CCC(N)=O)NC(=O)[C@H](Cc2ccc(O)cc2)NC(=O)[C@H](C(C)C)NC(=O)[C@H](C)NC(=O)[C@H](Cc2ccc(O)cc2)NC(=O)[C@H](CCCNC(=N)N)NC(=O)[C@H](C)N(C)C(=O)C[C@@H](C(=O)N2CCCC2)NC(=O)[C@@H]2CCCN2C(=O)[C@H](Cc2ccc(O)cc2)NC1=O) [PP12]"
cat = "Satisfied"


Prompt: API: above_or_equal(metric=50% inhibition concentration, Regnase-1 phosphorylation by IKKβ (AlphaScreen), cutoff=10 µM) for item [dNMeA]KHASAWYRIWD-Pyrrolidide (lactam N-12) [PP3]
Completion: Not satisfied
